# reported activity change (PNC), negative = inhibition; entries follow
method-notes: High Content Assay for Compounds that inhibit the Assembly of the Perinucleolar Compartment
experimental-conditions: PC3M PTB-GFP, PNC prevalence imaging, 16 h; at 10 µM; hits give low values
Among all 140,000 compounds or so, about 4,300 (3.1%) were called active. Roughly 21% stayed inconclusive and do not appear here. The sample holds actives, similar compounds and a random draw of the others, so the mix is not that of the screen.
State just the number; it will be interpreted in %.

Illustrative cases are given below, each with its answer.
# input compound: C=C(C)CNC(=S)/N=c1\scc(C)n1CC ; wanted: its activity change (PNC), negative = inhibition -100

Same for COc1ccc(OC)c(-c2c(=O)n(OCc3ccccc3Br)c3ccccc3[n+]2[O-])c1 -113

Same for COC(=O)c1cn(-c2ccccc2)nc1-c1cccnc1 -22.9

Same for COc1ccc(C(CCNCc2ccccc2F)c2ccc(F)cc2)cc1 (stereo not drawn) -83.9

Next:
# input compound: CC1(C)C(=O)Nc2ccccc2N1C(=O)COC(=O)Cn1cnc2ccccc2c1=O ; wanted: its activity change (PNC), negative = inhibition -28.4

Same for COc1cc(OC)cc(-c2nc3ccccc3c(=O)n2NC(=O)c2cccnc2Cl)c1 -30

Same for O=C(Nc1ccccc1)c1ccc2nsnc2c1 -106

Same for CCn1c(Cc2ccccc2)nnc1SCC(=O)Nc1ccccc1 -27.9

Same for CCc1ccc(NC(=O)CSc2nc3ccccc3c(=O)n2CCN2CCOCC2)cc1 -23.7

Same for Cc1cc([N+](=O)[O-])nn1CC(=O)Nc1ccc(Cc2ccncc2)cc1 -5.96

###

method-notes: High Content Assay for Compounds that inhibit the Assembly of the Perinucleolar Compartment;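 note: plate controls were DMSO wells for no effect and camptothecin positive control wells for full effect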
experimental-conditions: PC3M PTB-GFP, PNC prevalence imaging, 16 h; at 10 µM
The campaign covered roughly 140,000 compounds. About 4,300 (3.1%) were called active. Not shown: some 21% with an inconclusive outcome.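 How the source made its calls: active means readout at or below -70, meaning at least 70% loss of cells showing the perinucleolar compartment, a nuclear body marking cancer cells; inconclusive means readout between -30 and a set limit; inactive means the rest.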 The entries come from a sample that favours actives as a whole.
Could you please pick one outcome from this set? active, inactive

See these solved cases before continuing.
// param item: Cc1cc(C)n(C(=O)c2ccc(S(=O)(=O)N3CCCC3)cc2)n1 ; yields the recorded call inactive

Same for Nc1nc(SCC(=O)NN(c2ccccc2)c2ccccc2)n[nH]1 inactive

Same for Cc1cc(Oc2ccccc2)nc(N2CCOCC2)n1 inactive

Same for COc1cc2c(cc1NC(=O)CN1CCN(S(=O)(=O)c3ccc(F)cc3)CC1)oc1ccccc12 inactive

Same for CCOC(=O)c1c(C)n(C)c2ccc(OC)c(NS(=O)(=O)CC)c12 inactive

Next:
// param item: Cc1cccc(C)c1NC(=O)C(c1ccccc1)N1CC(=O)Nc2ccccc21 (centres undefined) ; yields the recorded call inactive

Same for COc1ccc(COC(=O)N/N=C(\C)CC(=O)Nc2ccc(Cl)cc2)cc1 inactive

Same for CN(C)c1ccc(/C=N/N(Cc2ccccc2)c2ccccc2)cc1 inactive

Same for CCOC(=O)C1=C(C)NC(C)=C(C(=O)OCC)C1C1=COCCO1 inactive

Same for COc1cc(C2C(C(=O)Nc3ccccc3OC)=C(C)Nc3ncnn32)ccc1O (centres undefined) inactive

Same for O=C(NCCNc1ccc([N+](=O)[O-])cc1)c1cccc2c(Br)cccc12 active

Same for Cc1nc2c(c(=O)n1Cc1ccco1)c1nc3ccccc3nc1n2Cc1ccccc1 inactive

Same for O=C(CCc1nc2ccccc2c(=O)[nH]1)OCC(=O)c1cccc(Cl)c1 inactive

Same for COc1ccccc1NC(=O)C1=C(C)Nc2nc3ccccc3n2C1c1cccs1 (centres undefined) active

Same for CC(=O)c1c(O)cc2n(c1=O)-c1ccc(Cl)cc1C2(C)C inactive

Same for COCCOC(=O)C1=C(C)Nc2nc(C)nn2C1c1ccccc1 (centres undefined) inactive

Same for COc1ccc(Nc2cc(C)nc(-n3nc(C)cc3C)n2)cc1 active

Same for COc1cc(NC(=O)c2cc([N+](=O)[O-])ccc2Br)ccc1NC(=O)c1ccco1 inactive

Same for CC(=O)c1ccc(NC(=O)Nc2ccc([N+](=O)[O-])cc2C)cc1 inactive

Same for COc1ccc(NC(=O)Cn2c(=O)n(Cc3ccco3)c(=O)c3ccccc32)cc1 inactive

Same for CCN(CC)c1ccc(S(=O)(=O)N2CCOCC2)cc1NC(=O)CSc1cccc[n+]1[O-] inactive

Same for COc1ccccc1/C=N\Nc1cc(C)nc(-n2nc(C)cc2C)n1 inactive

###

method-notes: High Content Assay for Compounds that inhibit the Assembly of the Perinucleolar Compartment;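 note: plate controls were DMSO wells for no effect and camptothecin positive control wells for full effect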
experimental-conditions: PC3M PTB-GFP, PNC prevalence imaging, 16 h; at 10 µM; hits give low values
Among all 140,000 compounds or so, about 4,300 (3.1%) were called active. Another 21% or so got no clear call; they are omitted. The entries come from a sample that favours actives as a whole.
Simple rule here: activity change (PNC), negative = inhibition less than -10% is class 1, otherwise class 0.

See these solved cases before continuing.
Answer whether the compound COc1ccc2c(-c3ccccc3)cc(SCC(=O)N(C)C3CCS(=O)(=O)C3)nc2c1 (stereo unspecified) has activity change (PNC), negative = inhibition strictly less than -10% class 0

Same for FC(F)(F)c1cc(-c2ccco2)nc(N2CCOCC2)n1 class 0

Same for O=C(NCc1ccccc1Cl)C1CCC(CNc2c(N3CCCCC3)c(=O)c2=O)CC1 (stereo unspecified) class 0

Please find the next compound below.
Answer whether the compound CC1CN(C(=O)c2ccccc2NS(=O)(=O)c2cccc([N+](=O)[O-])c2)CC(C)O1 (stereo unspecified) has activity change (PNC), negative = inhibition strictly less than -10% class 0

###

method-notes: High Content Assay for Compounds that inhibit the Assembly of the Perinucleolar Compartment;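 note: plate controls were DMSO wells for no effect and camptothecin positive control wells for full effect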
experimental-conditions: PC3M PTB-GFP, PNC prevalence imaging, 16 h; at 10 µM; hits give low values
Among all 140,000 compounds or so, about 4,300 (3.1%) were called active. Inconclusive results (about 21%) are left out. For the sample, actives were picked, then their nearest neighbours and some compounds at random.
# binning rule on activity change (PNC), negative = inhibition: 1: < -10%; 2: ≥ -10% and < 10%; 3: ≥ 10%

See these solved cases before continuing.
Please let me know in which category the item Cc1cc(C)cc(OCC(=O)Nc2nc3ccc([N+](=O)[O-])cc3s2)c1 belongs. 3

Same for Cn1ncc2c(NNC(=O)Cc3cccc4ccccc34)ncnc21 1

Same for N#CC1=C(SCc2ccc(C#N)cc2)N=C(N)C(c2nc(-c3ccccc3)cs2)C12CCCCC2 (stereo not given) 1

Next:
Please let me know in which category the item Cc1cc(C)cc(NC(=S)NCCCN2CCOCC2)c1 belongs. 3

Same for Cc1c(C2=CCN(S(=O)(=O)c3ccc(Cl)cc3)CC2)c2ccccc2n1C 3

Same for COc1ccc(NC(=S)NCc2cccs2)c(OC)c1 2

Same for Cc1ccc(C(=O)/C=C/c2c(C)nn(-c3ccccc3)c2Cl)cc1 1

Same for Cc1ccc(C2C3=C(Nc4[nH]n(-c5ccccc5)c(=O)c42)c2ccccc2C3=O)cc1 (stereo not given) 2

Same for COc1ccc(C2CC(c3ccccc3)=NN2C(=O)c2ccc(Cl)c([N+](=O)[O-])c2)cc1 (stereo not given) 3

Same for CCCCC(CC(C)O)c1n[nH]c(=S)n1-c1ccccc1 (stereo not given) 2

Same for CCc1cccc(CC)c1NC(=O)COc1ccccc1C(=O)c1cc(C#N)c(=O)n(C2CCCCC2)c1 1

Same for COc1ccc(Br)cc1C(=O)Nc1cccc(C)c1C 1

Same for CCC(=O)Nc1c(S(=O)(=O)c2ccccc2)c2nc3ccccc3nc2n1Cc1ccccc1 2

Same for COc1cccc2c(O)cc(=O)n(C)c12 2

Same for Cc1ccc(S/C(=N\S(=O)(=O)c2ccc(Cl)cc2)c2ccccc2)cc1 1

Same for CN(CC(=O)Nc1ccc(S(=O)(=O)N2CCCC2)cc1)Cc1ccc(Cl)c(Cl)c1 3

Same for O=C(O)c1ccc(NC(=O)c2cccs2)cc1 1

Same for CCOC(=O)CNC(=O)CSc1nnnn1-c1cc(C)ccc1C 2

###

method-notes: High Content Assay for Compounds that inhibit the Assembly of the Perinucleolar Compartment;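 note: plate controls were DMSO wells for no effect and camptothecin positive control wells for full effect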
experimental-conditions: PC3M PTB-GFP, PNC prevalence imaging, 16 h; at 10 µM; hits give low values
In all, about 140,000 compounds went through this assay and about 4,300 (3.1%) were called active. About 21% were inconclusive and are not listed. This is one part of a sample in which actives are shown more often than they occur.
# reported activity change (PNC), negative = inhibition; entries follow
State just the number; it will be interpreted in %.

Illustrative cases are given below, each with its answer.
# input molecule: O=C(OCN1C(=O)c2ccccc2C1=O)/C(=C\c1ccco1)NC(=O)c1ccccc1 ; wanted: its activity change (PNC), negative = inhibition 73.8

Same for COC(=O)C1=C(C)N(c2ccc(Br)cc2)C(=O)/C1=C\c1ccco1 -80.8

Same for Cc1ccc(NC(=O)CC2C(=O)N(Cc3ccccc3)C(=S)N2NC(=O)c2cccc(F)c2)c(C)c1 (stereo not given) -107

Next:
# input molecule: CCCOc1ccc(NC(=O)C2OC3OC(C)(C)OC3C3OC(C)(C)OC23)cc1 (stereo not given) ; wanted: its activity change (PNC), negative = inhibition 10.2

Same for CC(=O)NNC1=Nc2ccccc2N(C)C(C)C1 (stereo not given) 41.2
